# System: c-Src
# experiment.notes: phosphorylation enrichment, bacterial display (enrichment ratio); higher = better substrate or ligand; peptides without Tyr show the background;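 further: 11-residue human phosphosite peptides and single-mutation variants displayed on the E. coli surface, counted by deep sequencing, each peptide's frequency after selection divided by its frequency in the unselected input library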;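 further: frequency after pTyr selection over input frequency; kinase dosed for 20-30% of maximal phosphorylation in three min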
Below, each entry is listed with its recorded phosphorylation enrichment.
parameter.measured: phosphorylation enrichment

{"columns": ["sequence.string", "parameter.measured", "reported"],
 "data": [
  ["CVAARYMDVKG [WFIKKN2_Y93]", "phosphorylation enrichment", 0.313],
  ["SVTCPYSPALN [TP53_Y126_T125P]", "phosphorylation enrichment", 2.15],
  ["LNFNEYFRDLN [HPRT1_Y198_D194N_YF]", "phosphorylation enrichment", 1.15],
  ["KKFPDYIQSAM [SGMS2_Y59_I62S_YF]", "phosphorylation enrichment", 0.521],
  ["RMSQRYRDVLQ [CYP1A2_Y72_G73R]", "phosphorylation enrichment", 0.745],
  ["TKDTFYKQPMF [GBA_Y451]", "phosphorylation enrichment", 0.42],
  ["IIRRLYLKWHP [SACS_Y4333]", "phosphorylation enrichment", 0.571],
  ["KDAGDYKCKAK [LRIT3_Y326]", "phosphorylation enrichment", 0.384],
  ["ARSHIYTFASC [MEFV_Y741]", "phosphorylation enrichment", 1.3],
  ["VGEGPYLISDL [ABCC12_Y7]", "phosphorylation enrichment", 0.752],
  ["TGILLHGLASR [QARS1_Y57_Y57H]", "phosphorylation enrichment", 0.469],
  ["GHLFAYNWISI [BEST1_Y227_D228N_YF]", "phosphorylation enrichment", 0.392],
  ["YPLELYERVRM [PRKCG_Y312]", "phosphorylation enrichment", 0.699],
  ["SAPPSYEETVA [LITAF_Y23]", "phosphorylation enrichment", 0.398],
  ["FTRNFYVQAVL [CYBA_Y88_R90Q_YF]", "phosphorylation enrichment", 0.474],
  ["EERKTYVNTTL [TEK_Y1102]", "phosphorylation enrichment", 0.446],
  ["QMVRMYASSYM [AVPR2_Y124_G122R]", "phosphorylation enrichment", 0.464],
  ["EWLRGYLENGK [HLA-C_Y195_R194G]", "phosphorylation enrichment", 0.481],
  ["VNRSGYTLIRK [ATP6V0A2_Y688]", "phosphorylation enrichment", 0.43],
  ["CKLVDYDSARH [BIN1_Y150_R145C]", "phosphorylation enrichment", 0.372],
  ["VQDPAYLRDIN [OPRK1_Y369_D374N]", "phosphorylation enrichment", 0.488],
  ["TLCLCYKETEE [ATP8B1_Y658_I661T]", "phosphorylation enrichment", 0.617],
  ["QNTGNYFDLFG [PTPN11_Y62_D61N_YF]", "phosphorylation enrichment", 0.71],
  ["QMQLKYSQSDL [SMC1A_Y714_R711Q]", "phosphorylation enrichment", 0.457],
  ["TEYIQYMRRKN [MAX_Y73]", "phosphorylation enrichment", 0.491],
  ["QYQEKYKQMEQ [HCN4_Y531_V534M]", "phosphorylation enrichment", 0.374],
  ["KSIQLYDTPYE [SHB_Y297_G293S]", "phosphorylation enrichment", 0.986],
  ["DYYDLYGGEKF [PTPN11_Y66]", "phosphorylation enrichment", 4.69],
  ["CENCHYPIVPL [LCK_Y25]", "phosphorylation enrichment", 0.454],
  ["TMETKYDNISR [SETDB2_Y477_V473M]", "phosphorylation enrichment", 0.429],
  ["SGDITYGQFAQ [PLCG1_Y210]", "phosphorylation enrichment", 5.78],
  ["AQQPIYIRVEG [NLRP7_Y318_V319I]", "phosphorylation enrichment", 0.793],
  ["TEGNGYISFNE [LCP1_Y28_D24E]", "phosphorylation enrichment", 0.573],
  ["SEKISYVFMKR [SSX7_Y48_L43S_YF]", "phosphorylation enrichment", 0.412],
  ["EGTGHYLCNAC [GATA5_Y208_D203E]", "phosphorylation enrichment", 0.395],
  ["HITQVYGFFDE [PPP2CA_Y127_Q122H_YF]", "phosphorylation enrichment", 12.7],
  ["WAFNLYDINKF [KCNIP3_Y174_D179Y_YF]", "phosphorylation enrichment", 1.61],
  ["ERCAQYKKDGA [ALDOA_Y138]", "phosphorylation enrichment", 0.391],
  ["SRIWVYNHFRW [BRCA2_Y2621_YF]", "phosphorylation enrichment", 0.479],
  ["QGFDTYFGFLL [ARSB_Y165_R160Q_YF]", "phosphorylation enrichment", 7.09],
  ["RRIYSYRGHLW [VHL_Y112_H110Y]", "phosphorylation enrichment", 1.26],
  ["EDGRLYAVKRS [PKMYT1_Y136]", "phosphorylation enrichment", 0.485],
  ["DFPIGYPSYLA [TBCK_Y153]", "phosphorylation enrichment", 0.501],
  ["LNLKDYNLVGG [GNAQ_Y356_E355D]", "phosphorylation enrichment", 0.482],
  ["KRISCYEARYQ [PFKFB3_Y194_S197R]", "phosphorylation enrichment", 0.365],
  ["IFLGAYDRFLP [SLC22A5_Y486_V481I_YF]", "phosphorylation enrichment", 3.69],
  ["IEENGYNTYAS [FGF10_Y161]", "phosphorylation enrichment", 0.6]
]}

----------
# assay.target: EPHB1 (UniProt P54762)
# Sequence (P54762 whole entry, looked up): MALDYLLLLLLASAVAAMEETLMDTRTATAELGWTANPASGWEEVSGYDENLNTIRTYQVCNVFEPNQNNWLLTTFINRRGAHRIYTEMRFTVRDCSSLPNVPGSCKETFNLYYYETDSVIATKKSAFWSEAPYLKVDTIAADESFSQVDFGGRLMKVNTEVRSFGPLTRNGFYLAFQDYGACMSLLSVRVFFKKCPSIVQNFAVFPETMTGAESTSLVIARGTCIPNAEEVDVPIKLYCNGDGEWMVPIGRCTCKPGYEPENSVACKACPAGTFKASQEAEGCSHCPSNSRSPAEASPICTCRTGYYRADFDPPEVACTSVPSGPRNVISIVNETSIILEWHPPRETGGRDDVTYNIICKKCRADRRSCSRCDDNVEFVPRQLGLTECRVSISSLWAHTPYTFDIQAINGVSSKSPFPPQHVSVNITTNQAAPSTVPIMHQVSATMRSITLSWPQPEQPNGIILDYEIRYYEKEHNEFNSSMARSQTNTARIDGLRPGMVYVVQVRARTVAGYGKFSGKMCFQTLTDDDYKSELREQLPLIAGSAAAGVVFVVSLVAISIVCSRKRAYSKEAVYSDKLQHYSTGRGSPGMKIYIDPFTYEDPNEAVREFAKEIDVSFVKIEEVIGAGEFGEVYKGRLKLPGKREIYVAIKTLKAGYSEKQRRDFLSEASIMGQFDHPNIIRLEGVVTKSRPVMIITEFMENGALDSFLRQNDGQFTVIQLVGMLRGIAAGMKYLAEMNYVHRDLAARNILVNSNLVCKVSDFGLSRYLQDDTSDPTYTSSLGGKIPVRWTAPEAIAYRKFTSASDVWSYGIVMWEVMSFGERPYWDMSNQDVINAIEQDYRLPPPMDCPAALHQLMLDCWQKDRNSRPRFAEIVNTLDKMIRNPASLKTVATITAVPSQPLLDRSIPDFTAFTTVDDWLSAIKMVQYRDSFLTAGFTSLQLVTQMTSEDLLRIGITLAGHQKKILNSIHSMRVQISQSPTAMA
# experiment.notes: phosphorylation enrichment, bacterial display (enrichment ratio); higher = better substrate or ligand; peptides without Tyr show the background

{"columns": ["sequence.string", "phosphorylation enrichment"],
 "data": [
  ["EFTPLYPMLFG [SCLY_Y280]", 0.59],
  ["NTDETYCIDNK [TUBB3_Y200_E205K]", 0.721],
  ["VPTSKYRGGGG [HBA1_Y141_L137P]", 0.284],
  ["YSPCDYQPCLA [TNS1_Y798_Y796C]", 13.9],
  ["SGPRRYTIAAL [TTR_Y125]", 0.444],
  ["LTEHGYSFTTT [ACTB_Y198_R196H]", 0.862],
  ["NHYKRYNLCAE [PTEN_Y68_I67R]", 0.467],
  ["AISEGYKDFRA [CDA_Y79_V75I]", 0.353],
  ["KSIQLYDTPYE [SHB_Y297_G293S]", 11.6],
  ["LERYIYNREEF [HLA-DPB1_Y59]", 0.756],
  ["AQQPIYIRVEG [NLRP7_Y318_V319I]", 1.3],
  ["RLPINYTTRRI [LAMA2_Y2894_G2889R]", 0.433],
  ["LNEAVYTKMMT [G6PD_Y401_P396L]", 1.76],
  ["VTPVMYTYDEY [COL10A1_Y623_G618V]", 0.633],
  ["QEIATCRRLLE [KRT14_Y415_Y415C]", 0.412],
  ["ELPQTYCVSGP [DYSF_Y1684_G1679E]", 0.533],
  ["NGPDVYVLPLT [AATK_Y93]", 0.626],
  ["TFGNLYGSRKQ [YIPF7_Y59_A54T_YF]", 0.366],
  ["GISDEYHMIRH [GCDH_Y398_V400M]", 0.446]
]}

----------
# reported phosphorylation enrichment; entries follow
# assay.target: FGFR1 (UniProt P11362)
# Sequence (P11362 whole entry, looked up): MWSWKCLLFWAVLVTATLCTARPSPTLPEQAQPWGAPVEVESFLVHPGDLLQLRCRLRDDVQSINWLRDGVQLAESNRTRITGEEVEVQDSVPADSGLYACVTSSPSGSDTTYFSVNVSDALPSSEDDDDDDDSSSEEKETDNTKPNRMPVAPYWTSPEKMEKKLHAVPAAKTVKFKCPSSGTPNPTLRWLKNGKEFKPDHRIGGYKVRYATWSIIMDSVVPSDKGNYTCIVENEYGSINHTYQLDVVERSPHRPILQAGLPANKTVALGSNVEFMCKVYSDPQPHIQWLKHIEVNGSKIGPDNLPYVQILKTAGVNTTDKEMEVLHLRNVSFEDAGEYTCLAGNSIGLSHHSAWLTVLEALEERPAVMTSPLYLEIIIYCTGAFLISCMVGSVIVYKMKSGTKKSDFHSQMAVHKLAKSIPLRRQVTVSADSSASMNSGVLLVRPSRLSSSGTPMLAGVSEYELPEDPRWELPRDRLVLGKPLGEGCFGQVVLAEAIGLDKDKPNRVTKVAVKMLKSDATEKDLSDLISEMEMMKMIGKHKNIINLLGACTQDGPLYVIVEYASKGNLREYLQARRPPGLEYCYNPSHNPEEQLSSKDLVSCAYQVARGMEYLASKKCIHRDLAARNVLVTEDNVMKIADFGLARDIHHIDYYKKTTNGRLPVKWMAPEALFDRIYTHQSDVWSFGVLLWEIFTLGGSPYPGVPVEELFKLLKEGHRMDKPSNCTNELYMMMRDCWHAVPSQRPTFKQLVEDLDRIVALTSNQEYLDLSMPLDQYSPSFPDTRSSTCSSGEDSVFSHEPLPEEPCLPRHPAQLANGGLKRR
# experiment.notes: phosphorylation enrichment, bacterial display (enrichment ratio); higher = better substrate or ligand; peptides without Tyr show the background
parameter.measured: phosphorylation enrichment

{"columns": ["sequence.string", "reported"],
 "data": [
  ["LLASGYDSPIN [ABLIM1_Y638_R637G]", 0.859],
  ["LLREWYLQDPY [SIX3_Y225]", 0.867],
  ["PRARTYCYKQE [KLHDC9_Y175_S171R]", 0.497],
  ["PSELFYSKIGP [SMG1_Y2254_YF]", 5.34],
  ["EKIANYKEGTF [CLRN1_Y171_YF]", 0.461],
  ["DENCFYTRAAS [RPS19_Y54_W52C]", 0.594],
  ["ACLSLYGGFVE [MVD_Y164_R161L]", 0.681],
  ["LKYAIYFEVRE [LAMA2_Y1258_A1261V]", 1.09],
  ["GHLYACDWISI [BEST1_Y227_Y227C]", 0.902],
  ["AFDNLYYWDQD [ERBB2_Y1221]", 9.23],
  ["DVFLKHLNFAT [PDE6B_Y212_Y212H]", 0.483],
  ["SENFTYIWWLN [PSG4_Y271_K267E_YF]", 0.543],
  ["DDKEFYSVHNK [MET_Y1235_Y1230D_YF]", 0.525]
]}
